Provenance of the data: paper PMC11277476

Quick reference: Colchicine Binding % Inhibition ± SD of the listed items.
- System: tubulin (colchicine site)
- Experimental details: Inhibition of [3H]colchicine binding to tubulin
- Set-up: species or system bovine
- Measurement context: tubulin 0.5 µM, [3H]colchicine 5 µM, tested compound 5 µM

>  <Compound>
COc1cc(OC)cc(C(=O)c2oc3cc(OC)c(C#CC(=O)NO)cc3c2C)c1 [Compound 11c]

>  <Colchicine Binding % Inhibition ± SD, %>
82

$$$$
>  <Compound>
COc1cc2oc(C(=O)c3ccc(OC)c(OC)c3)c(C)c2cc1/C=C/C(=O)NO [Compound 6b]

>  <Colchicine Binding % Inhibition ± SD, %>
41

$$$$
>  <Compound>
COc1cc2oc(C(=O)c3cc(OC)c(OC)c(OC)c3)cc2cc1/C=C/C(=O)NO [Compound 6i]

>  <Colchicine Binding % Inhibition ± SD, %>
43

$$$$
>  <Compound>
COc1cccc(C(=O)c2oc3cc(OC)c(/C=C/C(=O)NO)cc3c2C)c1 [Compound 6e]

>  <Colchicine Binding % Inhibition ± SD, %>
86

$$$$
>  <Compound>
COc1ccc(/C=C\c2cc(OC)c(OC)c(OC)c2)cc1O [CA-4, combretastatin A-4, reference compound]

>  <Colchicine Binding % Inhibition ± SD, %>
98

$$$$
>  <Compound>
COc1cc2oc(C(=O)c3ccccc3OC)c(C)c2cc1/C=C/C(=O)NO [Compound 6f]

>  <Colchicine Binding % Inhibition ± SD, %>
76

$$$$
>  <Compound>
COc1cc2oc(C(=O)c3ccccc3)c(C)c2cc1/C=C/C(=O)NO [Compound 6g]

>  <Colchicine Binding % Inhibition ± SD, %>
86

$$$$
>  <Compound>
COc1cc2oc(C(=O)c3cc(OC)c(OC)c(OC)c3)c(C)c2cc1C#CC(=O)NO [Compound 11a]

>  <Colchicine Binding % Inhibition ± SD, %>
69

$$$$
>  <Compound>
COc1cccc(C(=O)c2oc3cc(OC)c(C#CC(=O)NO)cc3c2C)c1 [Compound 11e]

>  <Colchicine Binding % Inhibition ± SD, %>
81

$$$$
>  <Compound>
COc1ccc(C(=O)c2oc3cc(OC)c(/C=C/C(=O)NO)cc3c2C)cc1 [Compound 6d]

>  <Colchicine Binding % Inhibition ± SD, %>
27

$$$$
>  <Compound>
COc1cc2oc(C(=O)c3ccc(OC)c(OC)c3)c(C)c2cc1C#CC(=O)NO [Compound 11b]

>  <Colchicine Binding % Inhibition ± SD, %>
30

$$$$
>  <Compound>
COc1cc(OC)cc(C(=O)c2oc3cc(OC)c(/C=C/C(=O)NO)cc3c2C)c1 [Compound 6c]

>  <Colchicine Binding % Inhibition ± SD, %>
81

$$$$
>  <Compound>
COc1cc2oc(C(=O)c3ccccc3OC)c(C)c2cc1C#CC(=O)NO [Compound 11f]

>  <Colchicine Binding % Inhibition ± SD, %>
20

$$$$

====

Reported IC50 is given for each of the following compounds.
- System: HeLa cells
- Experimental details: In vitro growth inhibition (resazurin, 72 h), HeLa
- Type: cell-based
- Measurement context: Homo sapiens, concentration inhibiting tumor cell proliferation by 50%, mean ± SE

>  <Compound>
COc1cc2oc(C(=O)c3ccc(OC)c(OC)c3)c(C)c2cc1C#CC(=O)NO [Compound 11b]

>  <IC50>
69.4 nM

$$$$
>  <Compound>
COc1ccc(C(=O)c2oc3cc(OC)c(C#CC(=O)NO)cc3c2C)cc1 [Compound 11d]

>  <IC50>
1.43 nM

$$$$
>  <Compound>
COc1cc2oc(C(=O)c3ccccc3OC)c(C)c2cc1C#CC(=O)NO [Compound 11f]

>  <IC50>
60.5 nM

$$$$
>  <Compound>
COc1cc2oc(C(=O)c3cc(OC)c(OC)c(OC)c3)c(C)c2cc1C#CC(=O)NO [Compound 11a]

>  <IC50>
0.4 nM

$$$$

====

- System: A549 cells
- Experimental details: In vitro growth inhibition (resazurin, 72 h), A549
- Type: cell-based
- Measurement context: Homo sapiens, mean ± SE
Returns: string. Value is class 1 if measured IC50 is below 40 nM, and class 0 if it is greater than or equal to it.

>  <Molecule>
COc1cc(C(=O)c2oc3ccc(C#CC(=O)NO)cc3c2C)cc(OC)c1OC [Compound 11h]

>  <Assayed target>
A549 cells

>  <Label>
class 0

$$$$
>  <Molecule>
COc1cc(C(=O)c2oc3ccc(/C=C/C(=O)NO)cc3c2C)cc(OC)c1OC [Compound 6h]

>  <Assayed target>
A549 cells

>  <Label>
class 0

$$$$
>  <Molecule>
COc1cc2oc(C(=O)c3ccccc3)c(C)c2cc1/C=C/C(=O)NO [Compound 6g]

>  <Assayed target>
A549 cells

>  <Label>
class 1

$$$$
>  <Molecule>
COc1cccc(C(=O)c2oc3cc(OC)c(/C=C/C(=O)NO)cc3c2C)c1 [Compound 6e]

>  <Assayed target>
A549 cells

>  <Label>
class 0

$$$$
>  <Molecule>
C#Cc1cc2c(C)c(C(=O)c3cc(OC)c(OC)c(OC)c3)oc2cc1OC [Compound 8]

>  <Assayed target>
A549 cells

>  <Label>
class 0

$$$$
>  <Molecule>
COc1cc2oc(C(=O)c3cc(OC)c(OC)c(OC)c3)c(C)c2cc1/C=C/C(=O)NO [Compound 6a]

>  <Assayed target>
A549 cells

>  <Label>
class 1

$$$$
>  <Molecule>
COc1cc2oc(C(=O)c3cc(OC)c(OC)c(OC)c3)c(C)c2cc1C#CC(=O)NO [Compound 11a]

>  <Assayed target>
A549 cells

>  <Label>
class 1

$$$$
